Target: T1, hVEGF-A (8-109) (human, UniProt P15692 214-315)
T1 construct: residue numbers count on mature VEGF-A; dimer
T1 sequence (looked up): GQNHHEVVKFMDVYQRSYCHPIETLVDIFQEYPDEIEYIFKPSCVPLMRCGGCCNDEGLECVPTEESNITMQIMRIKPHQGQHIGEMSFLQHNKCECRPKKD
Experiment: spot phage ELISA
Hi there, I'd appreciate the recorded S/N for every entry that follows.
Answers are plain numbers.

GCNVLLPLWGCKQDSDCLAGCVCHWYQSCG (designed binder) [VEGF_CKP9.L1.64] ... 19.9
GCNIMLPFWGCSGDFACLAGCVCQYYQSCG (designed binder) [VEGF_CKP9.54.64] ... 22.4
GCKIMQPLWGCKQDSDCLAGCVCLWYDSCG (designed binder) [VEGF_CKP9.47] ... 14.6

Each of the following entries comes with a recorded value; kindly state S/N for each.
1. GCRDLTINWALFCKQDSDCLAGCVCQMFNSCG (designed binder) [VEGF_CKP7.73]
2. GCQVLQPSWGCKQDSDCLAGCVCHWYQSCG (designed binder) [VEGF_CKP9.L1.79]
3. GCDVLQPFWGCKQDSDCLAGCVCHWYQSCG (designed binder) [VEGF_CKP9.2]
4. GCNPMLPFWGCKQDSDCLAGCVCHWYQSCG (designed binder) [VEGF_CKP9.L1.57]

Solution:
[19.2, 10, 31.1, 31.8]
